Target: T1, human CD33 (human, UniProt P20138 18-259, limits assumed)
T1 construct: Human CD33 immobilized on the BLI sensor tip or the BIAcore C1 chip; also called Siglec-3
T1 sequence (P20138 18-259 limits assumed): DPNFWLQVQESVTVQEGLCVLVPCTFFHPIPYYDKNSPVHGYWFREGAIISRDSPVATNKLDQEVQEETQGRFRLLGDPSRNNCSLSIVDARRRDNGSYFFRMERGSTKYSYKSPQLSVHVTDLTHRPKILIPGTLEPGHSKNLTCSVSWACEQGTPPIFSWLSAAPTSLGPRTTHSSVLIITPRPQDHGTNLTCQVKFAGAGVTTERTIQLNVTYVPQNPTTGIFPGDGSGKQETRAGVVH
Assay: BLI (ForteBio), Fab 100 nM on immobilized CD33
For each entry below, report its Fold affinity improvement over parental Ab (AB-H14) value.
Answers are plain numbers, in fold.

Example entries begin here.
>  <BINDER>
AB-14.9 (antibody, V domains shown) VH: QVQLVQSGAEVKKPGASVKVSCKASGYTFTDYNYHWVRQAPGQGLEWIGFIYPSNGITGYAQKFQGRVTMTVDTSTSTVYMELSSLRSEDTAVYYCARSDVDYFDYWGQGTLVTVSS VL: GIQMTQSPSSLSASVGDRVTITCRASQSVGTSTYSYMHWYQQKPGKAPKLLIKYAVNLESGVPSRFSGSGSGTDFTLTISSLQPEDFATYYCQHSWEIPLTFGQGTKLEIK

>  <RESULT>
13.4

$$$$
>  <BINDER>
AB-14.6 (antibody, V domains shown) VH: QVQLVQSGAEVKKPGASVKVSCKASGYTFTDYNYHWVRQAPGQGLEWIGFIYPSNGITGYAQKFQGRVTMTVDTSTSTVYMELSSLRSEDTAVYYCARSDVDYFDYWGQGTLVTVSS VL: DIQMTQSPSSLSASVGDRVTITCRASQSVGTSTYSYMHWYQQKPGKAPKLLIKYASALESGVPSRFSGSGSGTDFTLTISSLQPEDFATYYCQHSWEIPLTFGQGTKLEIK

>  <RESULT>
9.83

$$$$
>  <BINDER>
AB-14.4 (antibody, V domains shown) VH: QVQLVQSGAEVKKPGASVKVSCKASGYTFTDYNYHWVRQAPGQGLEWIGFIYPSNGITGYAQKFQGRVTMTVDTSTSTVYMELSSLRSEDTAVYYCADSTVDYFDYWGQGTLVTVSS VL: DIQMTQSPSSLSASVGDRVTITCRASQDVSTSTYSYMHWYQQKPGKAPKLLIKYVSNLESGVPSRFSGSGSGTDFTLTISSLQPEDFATYYCQHSWEIPLTFGQGTKLEIK

>  <RESULT>
13

$$$$
>  <BINDER>
AB-14.8 (antibody, V domains shown) VH: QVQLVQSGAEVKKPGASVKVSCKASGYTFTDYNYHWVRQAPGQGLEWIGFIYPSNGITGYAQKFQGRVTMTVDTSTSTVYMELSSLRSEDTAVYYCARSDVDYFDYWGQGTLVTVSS VL: DIQMTQSPSSLPASVGDRVTITCRASQSVGTSTYSYMHWYQQKPGKAPKLLIKYASNLGSGVPSRFSGSGSGTDFTLTISSLQPEDFATYYCQHSWEIPLTFGQGTKLEIK

>  <RESULT>
13.6

$$$$

Note: attention shifts to another entry.
GET /value?item= AB-14.10 (antibody, V domains shown) VH: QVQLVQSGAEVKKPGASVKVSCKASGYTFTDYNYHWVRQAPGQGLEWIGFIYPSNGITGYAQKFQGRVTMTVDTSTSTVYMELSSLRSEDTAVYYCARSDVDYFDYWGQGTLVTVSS VL: DIQMTQSPSSLSASVGDRVTITCRASQSVSASTYSYMHWYQQKPGKAPKLLIKYASNLESGVPSRFSGSGSGTDFTLTISSLQPEDLATYYCQHSWEIPLTFGQGTKLEIK &field=Fold affinity improvement over parental Ab (AB-H14) returns 13.2

Origin of measurements: patent US20210139581A1
